pIC50: −log10 of the molar value.
Record: compiled pIC50 on Poly [ADP-ribose] polymerase 1 (Homo sapiens) from multiple reports.
Sequence (P09874 whole entry): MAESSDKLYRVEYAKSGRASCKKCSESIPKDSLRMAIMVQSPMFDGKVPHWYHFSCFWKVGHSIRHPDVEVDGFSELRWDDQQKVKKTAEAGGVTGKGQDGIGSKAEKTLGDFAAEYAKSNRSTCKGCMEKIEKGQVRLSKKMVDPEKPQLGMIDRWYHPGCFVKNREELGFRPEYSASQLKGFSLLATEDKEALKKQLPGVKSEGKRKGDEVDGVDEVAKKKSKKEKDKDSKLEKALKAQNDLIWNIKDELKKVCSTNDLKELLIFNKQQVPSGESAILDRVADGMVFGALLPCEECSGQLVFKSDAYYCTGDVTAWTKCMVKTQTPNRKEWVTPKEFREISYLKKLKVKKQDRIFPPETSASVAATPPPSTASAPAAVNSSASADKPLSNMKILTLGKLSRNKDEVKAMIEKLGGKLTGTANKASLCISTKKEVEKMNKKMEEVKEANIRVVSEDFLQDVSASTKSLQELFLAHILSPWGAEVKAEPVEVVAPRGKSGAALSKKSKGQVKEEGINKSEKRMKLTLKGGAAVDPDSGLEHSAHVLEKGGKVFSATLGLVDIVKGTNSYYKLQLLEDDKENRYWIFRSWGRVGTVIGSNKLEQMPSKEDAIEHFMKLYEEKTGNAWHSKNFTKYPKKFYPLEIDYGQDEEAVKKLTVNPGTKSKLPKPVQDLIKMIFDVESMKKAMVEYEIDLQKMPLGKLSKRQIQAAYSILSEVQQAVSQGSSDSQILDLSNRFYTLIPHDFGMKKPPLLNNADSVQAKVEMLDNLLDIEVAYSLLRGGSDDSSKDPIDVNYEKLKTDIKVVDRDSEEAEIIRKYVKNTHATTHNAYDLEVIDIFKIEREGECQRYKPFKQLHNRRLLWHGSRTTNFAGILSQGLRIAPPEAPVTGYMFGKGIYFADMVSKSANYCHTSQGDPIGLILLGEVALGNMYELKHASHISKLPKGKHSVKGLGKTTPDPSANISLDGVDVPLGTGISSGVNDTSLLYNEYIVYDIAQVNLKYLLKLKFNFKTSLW

| item smiles | pIC50 |
| --- | --- |
| O=C(CCCN1CCOCC1)Nc1ccc2c(c1)-c1[nH]c(=O)c3ccccc3c1C2 | 6.40 |
| NC(=O)c1cccc2ncc(-c3ccc(C(F)(F)F)cc3)nc12 | 6.93 |
| CNC(=O)c1ccc(N2CCN(Cc3ccc4c5c(c(=O)[nH]c4c3)CCO5)CC2)c(Cl)n1 | 8.40 |
| O=c1[nH]c(CCCN2CCN(c3ccc(Cl)cc3)CC2)nc2ccccc12 | 7.96 |
| CN(CCCN)Cc1ccc(-c2[nH]c3cc(F)cc4c3c2CCNC4=O)cc1 | 8.36 |
| O=c1[nH]c2c(c3ccccc13)Cc1cc(S(=O)(=O)NN3CCOCC3)c(F)cc1-2 | 6.35 |
